The reader will find reported MIC values listed item by item below.
tested on: Staphylococcus aureus; experiment: microbe, parasite or virus in culture; details: ATCC 43300, 18 h, ASSAY_TEST Inhibition of Bacterial Growth, detection method Absorption (OD600), MEDIA CAMHB, plate type 384well, NBS, CORNING #3640
Description: Antibacterial activity against Staphylococcus aureus MRSA ATCC 43300 (CO-ADD:GP_020); MIC in CAMBH media, using NBS plates, by OD(600)

chemical_string | MIC
Cn1cc(NC(=O)c2ccc(/C=C/c3ccncc3)cc2)cc1C(=O)Nc1cc(C(=O)NCCN2CCOCC2)n(CCCN2CCOCC2)c1.O=C(O)C(F)(F)F.O=C(O)C(F)(F)F | 4 µg/mL
Cn1cc(NC(=O)c2ccc(/C=C/c3cnc4ccccc4c3)cc2)cc1C(=O)NCCN1CCOCC1.O=C(O)C(F)(F)F.O=C(O)C(F)(F)F | 2 µg/mL

Kindly consider the entry below.
# input molecule: Cn1cc(NC(=O)c2cc(NC(=O)c3ccc(/C=C/c4cnc5ccccc5c4)cc3)cn2C)cc1C(=O)NCCN1CCCC1=O.O=C(O)C(F)(F)F ; wanted: its MIC
> 32 µg/mL

----------
test system: Staphylococcus aureus; experiment: microbe, parasite or virus in culture; conditions: ATCC 43300, 18 h, ASSAY_TEST Inhibition of Bacterial Growth, detection method Absorption (OD600), MEDIA CAMHB, plate type 384well, NBS, CORNING #3640
The reader will find reported MIC values listed item by item below.

// worked examples, MIC included
chemical_string | MIC
COc1cccc(C(=N)Nc2cc(C(=O)Nc3cc(C(=O)Nc4cc(C(=O)NCCCN(C)C)n(CCC(C)C)c4)n(C)c3)n(C)c2)c1 | > 32 µg/mL
Cn1cc(NC(=O)c2ccc(/C=C/c3cnc4ccccc4c3)cc2)cc1C(=O)Nc1cc(C(=O)NCCN2CCOCC2)n(CCCc2cn(CCc3ccccc3)nn2)c1.O=C(O)C(F)(F)F | > 32 µg/mL
CC(C)n1cc(NC(=O)c2cc(NC=O)cn2C)cc1C(=O)Nc1cc(C(=O)NCCCN(C)C)n(C)c1.O=C(O)C(F)(F)F | > 32 µg/mL

# input compound: COc1ccc(/C=C/c2ccc(C(=O)Nc3cc(C(=O)Nc4nc(C(=O)NCCN5CCOCC5)c(C5CCCCC5)s4)n(C)c3)cn2)cc1.O=C(O)C(F)(F)F.O=C(O)C(F)(F)F ; wanted: its MIC
> 32 µM

Quick one: COC1CCN(CCNC(=O)c2cc(NC(=O)c3cc(NC(=O)c4ccc(/C=C/c5ccc(N(C)C)cc5)nc4)cn3C)cn2C)CC1.O=C(O)C(F)(F)F.O=C(O)C(F)(F)F
≤ 0.25 µg/mL

Quick one: COc1cccc(/C=C/c2ccc(C(=O)Nc3cc(C(=O)Nc4cc(C(=O)NCCC(=N)N)n(C)c4)n(C)c3)cc2)c1.O=C(O)C(F)(F)F
8 µg/mL

Quick one: COc1cccc(/C=C/c2ccc(C(=O)Nc3cc(C(=O)Nc4cc(C(=O)NCCN5CCOCC5)n(CCCc5cn(CCc6ccccc6)nn5)c4)n(C)c3)cc2)c1.O=C(O)C(F)(F)F
> 32 µg/mL

Quick one: COc1ccc(/C=C/c2ccc(C(=O)Nc3cc(C(=O)Nc4cc(C(=O)NCCN5CCCCC5)n(CCCc5ccccc5)c4)n(C)c3)cn2)cc1.O=C(O)C(F)(F)F.O=C(O)C(F)(F)F
> 32 µg/mL

Quick one: Cn1cc(NC(=O)c2cc(NC(=O)c3ccc(/C=C/c4ccc5ccccc5n4)cc3)cn2C)cc1C(=O)NCCN1CCOCC1.O=C(O)C(F)(F)F
4 µg/mL

Quick one: CC(C)CCn1cc(NC(=O)c2cc(NC(=O)c3cc(NC(=N)c4cnc5ccccc5c4)cn3C)cn2C)cc1C(=O)NCCCN(C)C.O=C(O)C(F)(F)F.O=C(O)C(F)(F)F
32 µg/mL

Quick one: CC(C)c1sc(NC(=O)c2cc(NC(=O)c3cc(NC(=O)c4cc(NC=O)cn4C)cn3C)cn2C)nc1C(=O)NCCCN(C)C.O=C(O)C(F)(F)F
16 µg/mL

Quick one: Cn1cc(NC(=O)c2cc(NC(=O)C(C)(C)C)cn2C)cc1C(=O)NCCC(=N)N.O=C(O)C(F)(F)F
> 32 µg/mL
